- Experimental details: yeast AGP1-GFP fluorescence change, single-dose – cell-based, flow cytometry, S. cerevisiae, cherry picks, confirmation (AID 2273);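 note: median GFP channel fluorescence over the whole cell population gate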
- Condition notes: S. cerevisiae AGP1-GFP strain, 3 h, at 10 µM
The molecules listed here are annotated with their GFP response, % of DMSO.
Outcome measure: GFP response, % of DMSO (%)

COc1cc2c(cc1OC)C(c1ccccc1)=NCC2; 98.3
O=[N+]([O-])c1ccc(O)c2ncccc12; 128
OC(CCN1CCCCC1)(c1ccccc1)c1ccccc1; 96.3
CN/C(=C/[N+](=O)[O-])NCCSCc1ccc(CN(C)C)o1; 99.3
CCOc1cc(C=O)ccc1OCCSc1ccc(C)cc1; 94.9
COc1cccc2sc(Nc3nc(-c4ccccn4)cs3)nc12; 104
